Test system: ATP;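 also: ATP exposure 15 min at 22 °C before imaging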
Experiment: switch fluorescence ratio, 500 uM ATP over buffer (Cy3 cluster intensity, sum of 5 cycles each) (fold (ratio)); higher = stronger signal-on switching upon ATP binding; sequences stand for … in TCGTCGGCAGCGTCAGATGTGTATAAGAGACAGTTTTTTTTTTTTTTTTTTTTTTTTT…TC
Conditions: aptamer strand: ATP DNA aptamer (quencher-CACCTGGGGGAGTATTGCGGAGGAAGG + anchor), 100 nM annealed; ATP concentration: 500 uM
Known switch fluorescence ratio of a selection of sequences

sequence-code	switch fluorescence ratio
TGGGGCGACT	0.991
TTCGCATATT	1.47
TGCGCAATTT	1.2
CAATGCACGG	1.07
TTGGTGCGGA	0.975
TAATACTATT	1.05
TAACTGTGAT	0.988
TGAGTCACCT	1.16
ATAGAATGGT	0.983
TTTGCACCAT	1.03
TTGGTCCGTG	1.01
TCGAATGGGG	0.961
TCCAACTCCA	1.11
GTGCTATAGT	1.03
GCATGGTTAT	0.993
TTTAGTTATT	0.998
CGCTCCGATG	1.26
GAGGCGACGT	0.963
TTTGGGATGT	1.02
ACTTTCGGTT	1
CGAAAGGGTT	0.998
GCAATCGTGG	1.04
CCTTTTTGGG	0.983
TCATATTGAT	0.984
TACAAGCTGT	1.01
TATTTTTCCG	1.03
AATGGATACT	1.03
GATGTACAGA	1.13
TAGTTGCGGC	1.01
GGTCTAGG	0.992
GTGGCTATCG	0.993
TCGGAGGGAG	1.02
TCATGTACCG	1.05
ATATTTGAGT	0.988
GTGTAATGGT	1.03
TCAGGAGTTT	1.04
AAGTTCGAGA	1
CATATGTCTG	0.994
TATTTGATGG	0.992
TGAATGCTGA	0.961
CTTTGGGGGT	0.979
ATGGGGTGTC	0.943
TTTGGCTGAA	1.01
ACCTAACACG	1.19
TATGTTTT	1.02
ATTAAGGTGC	1.31
AAAGCATAGG	1.03
AGGTGTTAGC	0.955
GTGGCACG	1.01
TTTGGCCGTT	1.2
TGGGGTTGGG	1
GGGGACATGG	1.07
TTCAGACAGG	1.09
TAGGAGTAAC	0.981
GTAGAGGGGG	0.989
CGGTAACAAA	1.01
AGCAGGCCGG	0.976
AGAATCTTTC	1.05
AGGTATAGGA	1.01
TTTAAACCTT	1.89
TACAGGGCCT	0.988
GGGTAGGATA	1.01
CGGTTTATGG	0.943
GCGGAACGTG	0.997
ATTTGTTGTG	1.01
ATCGTGTTGT	1.02
TAATTTTAAA	0.988
AATGCTCGCT	1.02
TTATCTGTTT	1.02
ACCATGCGTT	0.992
AGTCGGTGTG	0.963
TTTGATGAGA	1
TCTGGCGTTG	0.983
GAGTATGCAT	0.984
TTCTTTTTCA	1.06
TGGAGGGGCT	0.987
TTTTGAGCAC	1.16
GGCACTAGAC	1.09
GCAGGTGAGG	1.18
ATATGAGGTT	0.977
ACGATCAGCG	1.02
TCTTGGGATT	0.981
GGATGACGTC	1.04
